Quick reference for pKi among some molecules
Target: σ1-receptor (Cavia porcellus, UniProt Q60492)
Sequence (Q60492 whole entry): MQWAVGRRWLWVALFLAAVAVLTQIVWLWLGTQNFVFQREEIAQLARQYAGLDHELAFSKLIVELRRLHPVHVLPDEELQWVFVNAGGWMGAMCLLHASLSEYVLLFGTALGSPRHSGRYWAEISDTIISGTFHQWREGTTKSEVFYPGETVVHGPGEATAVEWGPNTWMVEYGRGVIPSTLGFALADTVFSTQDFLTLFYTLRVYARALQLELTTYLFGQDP
pKi: −log10 of the molar value.
Readout Type: pKi

- CC(=O)C1CCN(CCOc2ccn(-c3ccc(Cl)cc3Cl)n2)CC1: 8.82
- CC(=O)C1CCN(CCOc2ccn(-c3ccc(Cl)cc3)n2)CC1.O=C(O)C(=O)O [Example 8, oxalate]: 8.89
- CC(=O)C1CCN(CCOc2ccn(-c3ccc(Cl)c(Cl)c3)n2)CC1.O=C(O)C(=O)O [Example 5, oxalate]: 8.89
- CC(=O)N1CCN(CCOc2ccn(-c3ccc(Cl)c(Cl)c3)n2)CC1.O=C(O)C(=O)O: 8.38

====

Target: σ1-receptor (Cavia porcellus)
Construct: guinea pig brains were homogenized; from tissue; host or cells: guinea pig brain membranes
Assay: Sigma-1 receptor binding assay, [3H](+)-pentazocine, brain membranes
Settings: compound at 10^−8 M; [3H](+)-pentazocine 0.5 nM; guinea pig brain membranes
Readout Type: % Binding σ1 10^−8M (%)

- CCOC(=O)N1CCN(CCOc2cc(C)n(-c3ccc(Cl)c(Cl)c3)n2)CC1: 58.4
- Cc1cc(OCCN2CCC(N)C2)nn1-c1ccc(Cl)c(Cl)c1 (stereo not shown): 53.2
- CC(=O)N1CCN(CCOc2cc(C)n(-c3ccc(Cl)c(Cl)c3)n2)CC1: 82.5
- Cc1cc(OCCN2CCC(n3cnc4cccnc43)CC2)nn1-c1ccc(Cl)c(Cl)c1: 49.4
